System: cancer cell lines
Assay: Multiplexed cytotoxicity assay: cell proliferation (relative cell count IC50, GI50)
Type: cell-based
Conditions: Homo sapiens, NCI-H69, 72 h, NCIH69, Lung, SCLC; 72 h
endpoint: IC50

Record request: IC50 value, item C[C@]1(C(N)=O)CC[C@@H](n2c(Nc3c(Cl)cc(Cl)cc3Cl)nc3cnc(N[C@@H]4CCOC[C@H]4F)nc32)CC1
> 10 µM

###

Tested on: 64 cancer cell lines
Experiment: Anti-proliferative activity across a panel of 64 cancer cell lines (CellTiter-Glo)
Format: cell-based
Conditions: Homo sapiens, NCI-H1975, 72 h, NCI-H1975 (Lung)
endpoint: IC50 (µM)
Numbers only here, please. The scale is µM.

Record request: IC50 value, item C[C@]1(C(N)=O)CC[C@@H](n2c(Nc3c(Cl)cc(Cl)cc3Cl)nc3cnc(N[C@@H]4CCOC[C@H]4F)nc32)CC1
3.19
